// reported normalized growth per item
# experiment: chemical genetic growth profiling, strain panel (AID 1159580);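 further: tested at 20 µM; growth read once vehicle control cultures reached saturation at 30 °C; 1 = growth at the plate median or of vehicle wells; lower values mean less growth of the strain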
# assay context: S. cerevisiae deletion strains, growth OD, locus YLR384C, strain iki3, hits give low values
Among all 5,500 compounds or so, about 2,000 (36%) were called active. Roughly 18% stayed inconclusive and do not appear here. The list shows a part of the results.

molecule: COc1ccc2oc3ccccc3c(=O)c2c1
normalized growth: 0.912 (active)

molecule: C[C@]12C=CC(=O)C=C1CCC1C2[C@@H](O)C[C@@]2(C)C1CC[C@]2(O)C(=O)CO (some centres undefined)
normalized growth: 0.991 (inactive)

molecule: COc1ccc(-c2oc3cc(OC)c(OC)c(OC)c3c(=O)c2OC)cc1OC
normalized growth: 0.996 (inactive)

molecule: CC(=O)Oc1c2c(c3c(c1CC=C(C)C)O[C@]14C(=C[C@@H]5CC1C(C)(C)OC4(C/C=C(\C)C(=O)O)C5=O)C3=O)OC(C)(CCC=C(C)C)C=C2 (some centres undefined)
normalized growth: 0.964 (inactive)

molecule: Clc1ccc(C(Cn2ccnc2)OCc2ccsc2Cl)c(Cl)c1 (centres undefined)
normalized growth: 0.0608 (active)

molecule: Fc1ccc([C@@H]2CCNC[C@H]2COc2ccc3c(c2)OCO3)cc1
normalized growth: 0.995 (inactive)

molecule: COc1ccc(-c2oc3cc(OC)c(OC)c(OC)c3c(=O)c2OC)cc1
normalized growth: 0.974 (inactive)

molecule: CN[C@@H]1C(OC2[C@H](O[C@H]3[C@H](O)[C@@H](O)[C@H](N=C(N)N)[C@@H](O)[C@@H]3N=C(N)N)OC(C)[C@]2(O)CO)OC(CO)C(O)C1O (some centres undefined)
normalized growth: 0.997 (inactive)

molecule: O=C(O)COc1ccc(Cl)cc1Cl
normalized growth: 0.997 (inactive)

* * *

# experiment: chemical genetic growth profiling, strain panel (AID 1159580)
# assay context: S. cerevisiae deletion strains, growth OD, locus YDR502C, strain sam2, hits give low values
The campaign covered roughly 5,500 compounds. About 2,000 (36%) were called active. Roughly 18% stayed inconclusive and do not appear here. The list shows a part of the results.

compound: O=c1cccc2n1CC1CC2CN2CCCC[C@@H]12 (some centres undefined)
normalized growth: 0.981 (inactive)

compound: Clc1ccc(COC(Cn2ccnc2)c2ccc(Cl)cc2Cl)c(Cl)c1 (centres undefined)
normalized growth: 0.0624 (active)

compound: CC(=O)C1CCC2C3CCC4C[C@H](O)CCC4(C)C3C[C@H](O)C12C (some centres undefined)
normalized growth: 1.01 (inactive)

compound: CC(=O)OCC(=O)[C@@]1(O)CCC2C3CCC4=CC(=O)C=CC4(C)C3[C@@H](O)C[C@@]21C (some centres undefined)
normalized growth: 1.01 (inactive)

compound: COC1C=CC23c4cc5c(cc4CN(CC2O)[C@@H]3C1)OCO5 (some centres undefined)
normalized growth: 1.01 (inactive)

compound: COC[C@]12CN(C=O)C3[C@@H]4[C@H](OC)C1[C@]3(C1CC3(O)C(OC)C(O)C4(OC(C)=O)C1C3OC(=O)c1ccccc1)[C@@H](OC)C[C@H]2O (some centres undefined)
normalized growth: 1.02 (inactive)

compound: C[C@]12C=CC(=O)C=C1CCC1C2[C@@H](O)C[C@@]2(C)C1CC[C@]2(O)C(=O)CO (some centres undefined)
normalized growth: 0.992 (inactive)

compound: C=NC(C(=O)NC1C(=O)N2C1SC(C)(C)C2C(=O)O)c1ccccc1 (centres undefined)
normalized growth: 1.02 (inactive)

compound: CC(=O)Oc1ccc2c(c1)CCC1C2CC[C@]2(C)C(=O)CCC12 (some centres undefined)
normalized growth: 1.01 (inactive)

* * *

# experiment: chemical genetic growth profiling, strain panel (AID 1159580);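 further: tested at 20 µM; growth read once vehicle control cultures reached saturation at 30 °C; 1 = growth at the plate median or of vehicle wells; lower values mean less growth of the strain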
# assay context: S. cerevisiae deletion strains, growth OD, locus YPR167C, strain met16, hits give low values
In all, about 5,500 compounds went through this assay and about 2,000 (36%) were called active. Not shown: some 18% with an inconclusive outcome. This is one part of the list.

compound: CC(=O)O[C@H]1C[C@@H](OC(C)=O)C(C)(C)C2C[C@@H](OC(C)=O)[C@]3(C)C(CC[C@@]4(C)[C@H](c5ccoc5)OC(=O)[C@H]5O[C@]543)[C@]21C (some centres not stated)
normalized growth: 1
--
compound: CC(=O)O[C@@H]1CC2C(C)(C)C(=O)C3OC3[C@]2(C)C2CC[C@@]3(C)[C@H](c4ccoc4)OC(=O)C4OC43[C@@]21C (some centres not stated)
normalized growth: 0.998
--
compound: Cc1oncc1C(=O)Nc1ccc(C(F)(F)F)cc1
normalized growth: 0.995
--
compound: COC1=CC(=O)OC(CCc2ccc(OC)c(OC)c2)C1 (configuration not stated)
normalized growth: 1.02
--
compound: CC(=O)O[C@@H]1CC2C(C)(C)[C@@H](O)CC[C@]2(C)C2CC[C@@]3(C)[C@H](c4ccoc4)OC(=O)[C@H]4O[C@]43[C@@]21C (some centres not stated)
normalized growth: 1
--
compound: CC(=O)O[C@@H]1CC2C(C)(C)[C@H](O)CC[C@]2(C)C2CC[C@@]3(C)[C@H](c4ccoc4)OC(=O)[C@H]4O[C@]43[C@@]21C (some centres not stated)
normalized growth: 1.02
--
compound: CCN1C[C@@]2(COC)C3[C@@H](OC)[C@H]4[C@@H]1[C@]3(C(OC)C[C@H]2O)C1C[C@@]2(O)[C@H](OC(=O)c3ccccc3)C1[C@]4(OC(C)=O)[C@@H](O)[C@@H]2OC (some centres not stated)
normalized growth: 1.04
--
compound: NCCCCNCCCN
normalized growth: 0.982
--
compound: CC(=O)OC1CC(OC(C)=O)C2(C)C(CC(OC(C)=O)C3(C)C2CCC2(C)C(c4ccoc4)OC(=O)C4OC423)C1(C)C (configuration not stated)
normalized growth: 0.992
--
compound: CN=C(N)NCCCC(N)C(=O)O (configuration not stated)
normalized growth: 1.01
--
compound: NCCCNCCSP(=O)(O)O
normalized growth: 0.995
--
compound: COc1ccc2c(c1)OCC(Cc1ccc(OC)c(OC(C)=O)c1)C2=O (configuration not stated)
normalized growth: 0.994
--
compound: COc1ccc2c(c1)OCC(Cc1ccc(OC)c(O)c1)C2=O (configuration not stated)
normalized growth: 0.89
--
compound: CCCCCCCCCCCC(=O)OCC(COP(=O)(O)OCC(O)COP(=O)(O)OCC(COC(=O)CCCCCCCCCCC)OC(=O)CCCCCCCCCCC)OC(=O)CCCCCCCCCCC (configuration not stated)
normalized growth: 1.02
--
compound: NC1(C(=O)O)CCC1
normalized growth: 0.992
--
compound: CC(=O)O[C@H]1C[C@@H](OC(C)=O)C(C)(C)C2C[C@@H](O)[C@]3(C)C(CC[C@@]4(C)[C@H](c5ccoc5)OC(=O)[C@H]5O[C@]543)[C@]21C (some centres not stated)
normalized growth: 0.988
--
compound: CC(C)c1nc(N(C)S(C)(=O)=O)nc(-c2ccc(F)cc2)c1/C=C/[C@@H](O)C[C@@H](O)CC(=O)O
normalized growth: 1

* * *

# experiment: chemical genetic growth profiling, strain panel (AID 1159580);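 further: tested at 20 µM; growth read once vehicle control cultures reached saturation at 30 °C; 1 = growth at the plate median or of vehicle wells; lower values mean less growth of the strain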
# assay context: S. cerevisiae deletion strains, growth OD, locus YDR335W, strain msn5
About 2,000 (36%) of roughly 5,500 compounds were called active. Roughly 18% stayed inconclusive and do not appear here. Cut-off read from the data, not from the text of the source: active = normalized growth mostly below about 0.91 (no sharp cut-off); inconclusive = no clear call, values can overlap the other calls; inactive = mostly above about 0.92. Some of the results follow.
Possible outcomes: yes for active, no for inactive

compound: CC1CCC(NC(=O)N(CCCl)N=O)CC1 (stereo not drawn)
group label: no
//
compound: NCCCCC(=O)O
group label: no
//
compound: NCCCCCC(=O)O
group label: no
//
compound: O=C(O)[C@@H](S)[C@@H](S)C(=O)O
group label: yes
//
compound: O=C(O)CCCCCCCC(=O)O
group label: no
//
compound: N[C@@H](C(=O)O)[C@@H](O)[C@H](O)[C@H](O)CO
group label: no
//
compound: CC(C)(S)[C@@H](N)C(=O)O
group label: no
//
compound: COc1ccc2oc3ccccc3c(=O)c2c1
group label: yes
//
compound: O=NN(CCCl)C(=O)NCCCl
group label: no
//
compound: O=C(O)C(O)C(O)C(=O)O (stereo not drawn)
group label: no
//
compound: C[C@@H]1CC2C3CCC4=CC(=O)C=C[C@]4(C)[C@@]3(F)[C@@H](O)C[C@]2(C)[C@@]1(O)C(=O)CO (stereo partly drawn)
group label: no
//
compound: COc1cc(NS(C)(=O)=O)ccc1Cc1c2ccccc2nc2ccccc12
group label: no
//
compound: Clc1ccc(C(c2ccccc2Cl)C(Cl)Cl)cc1 (stereo not drawn)
group label: no

* * *

# experiment: chemical genetic growth profiling, strain panel (AID 1159580);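 further: tested at 20 µM; growth read once vehicle control cultures reached saturation at 30 °C; 1 = growth at the plate median or of vehicle wells; lower values mean less growth of the strain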
# assay context: S. cerevisiae deletion strains, growth OD, locus YCL061C, strain MRC1, hits give low values
Hit rate of the full screen: of about 5,500 compounds, about 2,000 (36%) were called active. Another 18% or so got no clear call; they are omitted. Some of the results follow.

compound: N[C@@H](C(=O)O)[C@@H](O)[C@H](O)[C@H](O)CO
normalized growth: 1.02
--
compound: FC(F)(F)c1ccc2[nH]c(=S)[nH]c2c1
normalized growth: 0.983
--
compound: COP(=S)(OC)Oc1ccc([N+](=O)[O-])cc1
normalized growth: 0.991
--
compound: CC(C)(S)[C@@H](N)C(=O)O
normalized growth: 1.01
--
compound: CC12CCC3C(CC[C@H]4CC5(CCC34C)OCCO5)C1CCC2O (some centres undefined)
normalized growth: 0.87
--
compound: COc1ccc2c(c1)OCC(Cc1ccc(O)c(OC)c1)C2=O (centres undefined)
normalized growth: 0.971
--
compound: CCN1CN=C(SCc2ccc(Br)cc2)NC1
normalized growth: 1.02
--
compound: O=c1cccc2n1CC1CC2CN2CCCC[C@@H]12 (some centres undefined)
normalized growth: 0.985
--
compound: COc1ccc2c(c1)OCC(Cc1ccc(OC)c(OC)c1)C2=O (centres undefined)
normalized growth: 0.923
--
compound: O=C(O)C(O)C(O)C(=O)O (centres undefined)
normalized growth: 0.997
--
compound: CC(=O)O[C@]1(C)CC[C@@]23CC1C(C)(C)[C@@H]2CC[C@H]3C
normalized growth: 0.985
--
compound: COc1ccc2nc(S(=O)Cc3ncc(C)c(OC)c3C)[nH]c2c1 (centres undefined)
normalized growth: 1.01
--
compound: NC(C(=O)O)C(O)C(=O)O (centres undefined)
normalized growth: 1
--
compound: COc1ccc2c(c1)OCC(Cc1ccc(OC)c(O)c1)C2=O (centres undefined)
normalized growth: 0.933
--
compound: C[C@@H]1CC[C@H]2C(C)(C)C3CC12CC[C@@]3(C)O (some centres undefined)
normalized growth: 0.952
--
compound: COP(=S)(OC)Oc1ccc(Sc2ccc(OP(=S)(OC)OC)cc2)cc1
normalized growth: 1.01
--
compound: COc1ccc2c(c1)OCC(Cc1ccc(OC)c(OC(C)=O)c1)C2=O (centres undefined)
normalized growth: 0.976
--
compound: C[C@]12C=CC(=O)C=C1CCC1C2[C@@H](O)C[C@@]2(C)C1CC[C@]2(O)C(=O)CO (some centres undefined)
normalized growth: 1.01
--
compound: CCCn1c(=O)c2[nH]c(C3CCCC3)nc2n(CCC)c1=O
normalized growth: 0.977
--
compound: Cc1c(C)c(C)c(CSc2nc3ccccc3[nH]2)c(C)c1C
normalized growth: 1.04
--
compound: Cc1oncc1C(=O)Nc1ccc(C(F)(F)F)cc1
normalized growth: 0.95
--
compound: CC1CCC(NC(=O)N(CCCl)N=O)CC1 (centres undefined)
normalized growth: 0.335
--
compound: COc1cc(C)c2c(=O)cc(-c3ccccc3)oc2c1
normalized growth: 0.927
--
compound: NCC[C@@H](O)C(=O)N[C@@H]1C[C@H](N)[C@@H](O[C@H]2O[C@H](CN)[C@@H](O)[C@H](O)[C@H]2O)[C@H](O)[C@H]1O[C@H]1O[C@H](CO)[C@@H](O)[C@H](N)C1O (some centres undefined)
normalized growth: 1.02
